Exercise: for every item that follows, state its recorded folding stability dG.
B1: r16_88_TrROS_Hall (parent)
chain: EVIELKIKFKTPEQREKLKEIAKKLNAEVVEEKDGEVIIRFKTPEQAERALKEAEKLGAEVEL

Variants of: B1
Assay: folding stability dG (cDNA display proteolysis); higher = more stable
Conditions: PBS, room temperature
Answers are plain numbers, in kcal/mol.

mutation_list=E16H unit_label=kcal/mol assay_value=4.59
mutation_list=R49Q unit_label=kcal/mol assay_value=4.41
mutation_list=E60A unit_label=kcal/mol assay_value=4.12
mutation_list=Q46C unit_label=kcal/mol assay_value=4.41
mutation_list=E28Q unit_label=kcal/mol assay_value=4.51
mutation_list=Q14M unit_label=kcal/mol assay_value=4.43

# batch: return folding stability dG for each of the 3 variants below
1. L18R
2. I38F
3. E31P

1. 2.12
2. 4.96
3. 4.06

# batch: return folding stability dG for each of the 2 variants below
1. E60Q
2. L57Y

[4.2, 4.28]

# batch: return folding stability dG for each of the 2 variants below
1. G35P
2. E36T

1. 3.8
2. 4.59

# batch: return folding stability dG for each of the 4 variants below
1. E60I
2. E62D
3. K52R
4. D34M

4.12
4.59
4.45
4.5

# batch: return folding stability dG for each of the 5 variants below
1. Q14A
2. E53W
3. V37W
4. R15V
5. E4Y

1. 4.33
2. 4.37
3. 4.36
4. 4.29
5. 4.64
